src = ChEMBL document CHEMBL5356968

assay.name: Drug concentration in C57BL/6 mouse plasma at 40 mg/kg, ip measured after 1 hrs by HPLC-ESI-MS/MS analysis
Format: ADME, organism-based
test.readout: concentration at 1 h
Reply with the number, then its unit.

q: What value of concentration at 1 h has been reported for the following compound? FC(F)(F)c1cccc(CO[C@H](Cn2ccnc2)c2ccc(Cl)cc2Cl)c1
a: 37 ng/mL

q: What value of concentration at 1 h has been reported for the following compound? Fc1ccc([C@@H](Cn2ccnc2)OCc2cc(Cl)cc(Cl)c2)cc1
a: 656 ng/mL

###

assay.name: Drug concentration in C57BL/6 mouse brain at 40 mg/kg, ip measured after 1 hrs by HPLC-ESI-MS/MS analysis
Assay type: ADME, organism-based
recorded.conditions: read-out: Drug uptake
test.readout: concentration at 1 h
Reply with the number, then its unit.

q: What value of concentration at 1 h has been reported for the following molecule? Fc1ccc([C@@H](Cn2ccnc2)OCc2cc(Cl)cc(Cl)c2)cc1
a: 232 ng/g
